tested-target: Amyloid-beta precursor protein (Homo sapiens)
Sequence (P05067 whole entry): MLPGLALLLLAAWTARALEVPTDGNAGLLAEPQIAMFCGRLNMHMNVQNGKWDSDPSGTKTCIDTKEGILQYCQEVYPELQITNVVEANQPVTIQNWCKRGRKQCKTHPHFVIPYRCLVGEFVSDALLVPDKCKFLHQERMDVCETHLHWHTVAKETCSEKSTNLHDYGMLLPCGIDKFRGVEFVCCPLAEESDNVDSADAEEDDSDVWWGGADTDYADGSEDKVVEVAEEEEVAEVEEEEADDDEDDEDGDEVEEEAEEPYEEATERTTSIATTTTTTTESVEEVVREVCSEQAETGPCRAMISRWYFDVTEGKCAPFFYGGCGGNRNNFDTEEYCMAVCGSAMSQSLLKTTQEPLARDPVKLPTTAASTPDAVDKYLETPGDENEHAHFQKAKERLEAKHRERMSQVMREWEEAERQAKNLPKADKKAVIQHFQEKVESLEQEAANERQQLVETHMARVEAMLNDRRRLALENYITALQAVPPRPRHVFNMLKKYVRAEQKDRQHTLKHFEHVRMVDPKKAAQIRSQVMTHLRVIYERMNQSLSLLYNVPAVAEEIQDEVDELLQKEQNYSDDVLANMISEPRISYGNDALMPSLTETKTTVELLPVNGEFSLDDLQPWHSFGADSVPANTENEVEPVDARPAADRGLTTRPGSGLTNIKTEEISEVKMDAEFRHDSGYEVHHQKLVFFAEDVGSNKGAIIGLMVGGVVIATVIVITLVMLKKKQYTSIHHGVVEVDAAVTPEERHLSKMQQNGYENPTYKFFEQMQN
experimental-details: Disruption of recombinant human amyloid beta (1 to 40) fibrils at 10 uM after 24 hrs by ThT fluorescence assay relative to control
The source made the active and inactive calls. No cut-off for these calls is given here.
measurement-name: Activity

molecule-smiles: COc1cc(/C=C/c2cc(C)[nH]n2)ccc1O
result: Active
//
molecule-smiles: O=C(/C=C/c1ccccc1)/C(CCCN1C(=O)c2ccccc2C1=O)=C(O)/C=C/c1ccccc1
result: Active
//
molecule-smiles: COc1cc(/C=C/C(=O)CC(=O)/C=C/c2ccc(O)c(OC)c2)ccc1O
result: > 75%
//
molecule-smiles: O=C(/C=C(O)/C=C/c1ccccc1)/C=C/c1ccccc1
result: Active
//
molecule-smiles: COc1cc(/C=C/C(=O)/C(CCCN2C(=O)c3ccccc3C2=O)=C(O)/C=C/c2ccc(O)c(OC)c2)ccc1O
result: > 75%
//
molecule-smiles: COc1cc(/C=C/c2cc(/C=C/c3ccc(O)c(OC)c3)[nH]n2)ccc1O
result: > 75%
//
molecule-smiles: COc1cc(/C=C/C(=O)/C=C(/C)O)ccc1O
result: Active
//
molecule-smiles: COc1cc(/C=C/c2cc(/C=C/c3ccc(OC(C)=O)c(OC)c3)[nH]n2)ccc1OC(C)=O
result: > 75%
//
molecule-smiles: C(=C\c1cc(/C=C/c2ccccc2)[nH]n1)/c1ccccc1
result: Active
